- Experiment: reversal of MRP1-mediated doxorubicin resistance, pilot screen, H69AR cells, doxorubicin co-treatment (AID 601)
- Experimental Context: H69AR cells + 2 uM doxorubicin, CellTiter-Glo, 72 h; measured here: viability with 2 uM doxorubicin; at 10 µM; stronger effect = lower value
Recorded viability for the following compounds
Value Type: viability

[[record]]
compound = "CC(=O)Nc1ccc(S(=O)(=O)N2CCN(C(C)CCc3ccccc3)CC2)cc1 (configuration not stated)"
value_type = "viability"
experimental_result = "91.4%"

[[record]]
compound = "COc1ccc(/C(O)=C2/C(=O)C(=O)N(CCN(C)C)C2c2ccccn2)cc1OC (configuration not stated)"
value_type = "viability"
experimental_result = "88.3%"

[[record]]
compound = "CC(C)(C)c1cc(CCC(=O)N2CCNCC2)c(C(C)(C)C)cc1O"
value_type = "viability"
experimental_result = "90.3%"

[[record]]
compound = "CCC(C)(C(=O)NC1CCCCC1)N(CC1CCCO1)C(=O)c1ccccn1 (configuration not stated)"
value_type = "viability"
experimental_result = "90.6%"

[[record]]
compound = "Cc1nn(-c2ccc(F)cc2)c2sc(C(=O)OCC(=O)N3CCC(C)CC3)cc12"
value_type = "viability"
experimental_result = "92.6%"

[[record]]
compound = "Cc1ccc(Cn2c(SCC(C)C)nc3c2c(=O)n(C)c(=O)n3C)cc1"
value_type = "viability"
experimental_result = "90.1%"

[[record]]
compound = "CCC(=O)N1CCc2cc(OC)c(OC)cc2C1COc1ccc(C(=O)OC)cc1 (configuration not stated)"
value_type = "viability"
experimental_result = "93.9%"

[[record]]
compound = "CC(NS(=O)(=O)c1ccccc1)C(c1cccs1)N1CCN(C)CC1 (configuration not stated)"
value_type = "viability"
experimental_result = "79.4%"

[[record]]
compound = "COc1ccccc1Nc1nc2ccccc2[nH]1"
value_type = "viability"
experimental_result = "83.4%"

[[record]]
compound = "CN(C(=O)c1cc2sccc2n1C)C1CCCCC1"
value_type = "viability"
experimental_result = "85.7%"

[[record]]
compound = "Cc1cccc(N2CCN(Cc3c(C)n(C)n(-c4ccccc4)c3=O)CC2)c1C"
value_type = "viability"
experimental_result = "83.8%"

[[record]]
compound = "Cc1ccc(-n2ncc3c(=O)[nH]c(SCC(=O)N4CCN(c5ccccc5)CC4)nc32)cc1"
value_type = "viability"
experimental_result = "71.5%"

[[record]]
compound = "O=C(NC1CCCC1)c1c[nH]c2ccc(F)cc2c1=O"
value_type = "viability"
experimental_result = "82.1%"

[[record]]
compound = "COCCn1c(=O)[nH]c2cc(C(=O)NCc3cccnc3)ccc2c1=O"
value_type = "viability"
experimental_result = "93.6%"

[[record]]
compound = "CCCNC(=O)c1ccccc1C(=O)NCCC"
value_type = "viability"
experimental_result = "95.5%"

[[record]]
compound = "Cn1c(COc2ccc(Cl)cc2)nnc1SCC(=O)NC1CCCCC1"
value_type = "viability"
experimental_result = "94%"

[[record]]
compound = "Fc1ccccc1C(c1nnnn1Cc1ccc2c(c1)OCO2)N1CCN(Cc2ccccc2)CC1 (configuration not stated)"
value_type = "viability"
experimental_result = "96.9%"

